Tested on: tobacco leaves
assay method text: Effect of peptide infiltration on tobacco leaves (lesion size)
Type: in vivo
condition info: Table 2; 250 µM infiltrated into tobacco leaves; ± confidence interval
Where a SMILES comes first, the peptide text is derived from it. [ ]: non-standard residue; d: D form. The star is where a group is joined. Butyryl = CCCC(=O)*
metric: Size of the lesion (mm) 250 µM
Give just the numeric value; mm need not be written.

compound: CCCCCCCCCCCC(=O)NCCCC[C@@H](NC(=O)[C@H](CC(C)C)NC(=O)[C@H](CCCCN)NC(=O)[C@H](CCCCN)NC(C)=O)C(=O)N[C@@H](CCCCN)C(=O)N[C@@H](CCCCN)C(=O)N[C@H](C(=O)N[C@@H](CC(C)C)C(=O)N[C@@H](CCCCN)C(=O)N[C@@H](Cc1ccc(O)cc1)C(=O)N[C@@H](CC(C)C)C(N)=O)[C@@H](C)CC
recorded number: 13

compound: CCCC(=O)NCCCC[C@H](NC(=O)[C@H](Cc1ccc(O)cc1)NC(=O)[C@H](CCCCN)NC(=O)[C@H](CC(C)C)NC(=O)[C@@H](NC(=O)[C@H](CCCCN)NC(=O)[C@H](CCCCN)NC(=O)[C@@H](Cc1ccccc1)NC(=O)[C@H](CC(C)C)NC(=O)[C@H](CCCCN)NC(=O)[C@H](CCCCN)NC(C)=O)[C@@H](C)CC)C(N)=O [BP496, Ac-KKLfKKILKYK(COC3H7)-NH2] (Ac-KKL[dF]KKILKYK(Butyryl)-NH2)
recorded number: 10

[ask] Requested field: Size of the lesion (mm) 250 µM. Item: `CCCC(=O)NCCCC[C@H](NC(=O)[C@H](CCCCN)NC(=O)[C@@H](Cc1ccccc1)NC(=O)[C@H](CC(C)C)NC(=O)[C@H](CCCCN)NC(=O)[C@H](CCCCN)NC(C)=O)C(=O)N[C@H](C(=O)N[C@@H](CC(C)C)C(=O)N[C@@H](CCCCN)C(=O)N[C@@H](Cc1ccc(O)cc1)C(=O)N[C@@H](CC(C)C)C(N)=O)[C@@H](C)CC`
[reply] 5

###

System: tobacco leaves
assay method text: Effect of peptide infiltration on tobacco leaves (lesion size)
Type: in vivo
condition info: D-amino acid lipopeptides; 50 µM, 100 µL infiltrated into mesophyll of tobacco leaves, lesion diameter, 48 h, at least three leaves; ± confidence interval
Where a SMILES comes first, the peptide text is derived from it. [ ]: non-standard residue; d: D form. The star is where a group is joined. Lauroyl = CCCCCCCCCCCC(=O)*; Hexanoyl = CCCCCC(=O)*
metric: Size of the lesion (mm) 50 µM
Give just the numeric value; mm need not be written.

Solved cases below.
molecule: CCCC(=O)NCCCC[C@H](NC(=O)[C@H](CCCCN)NC(=O)[C@@H](Cc1ccccc1)NC(=O)[C@H](CC(C)C)NC(=O)[C@H](CCCCN)NC(=O)[C@H](CCCCN)NC(C)=O)C(=O)N[C@H](C(=O)N[C@@H](CC(C)C)C(=O)N[C@@H](CCCCN)C(=O)N[C@@H](Cc1ccc(O)cc1)C(=O)N[C@@H](CC(C)C)C(N)=O)[C@@H](C)CC [BP473, Ac-KKLfKK(COC3H7)ILKYL-NH2]
unit text: mm
Size of the lesion (mm) 50 µM: 2
//
molecule: CCCCCC(=O)NCCCC[C@H](NC(=O)[C@H](CCCCN)NC(=O)[C@H](CCCCN)NC(=O)[C@@H](Cc1ccccc1)NC(=O)[C@H](CC(C)C)NC(=O)[C@H](CCCCN)NC(=O)[C@H](CCCCN)NC(C)=O)C(=O)N[C@@H](CC(C)C)C(=O)N[C@@H](CCCCN)C(=O)N[C@@H](Cc1ccc(O)cc1)C(=O)N[C@@H](CC(C)C)C(N)=O [BP494, Ac-KKLfKKK(COC5H11)LKYL-NH2] (Ac-KKL[dF]KKK(Hexanoyl)LKYL-NH2)
unit text: mm
Size of the lesion (mm) 50 µM: 1
//
molecule: CCCCCCCCCCCC(=O)NCCCC[C@H](NC(=O)[C@H](CCCCN)NC(=O)[C@H](CCCCN)NC(=O)[C@@H](Cc1ccccc1)NC(=O)[C@H](CC(C)C)NC(=O)[C@H](CCCCN)NC(=O)[C@H](CCCCN)NC(C)=O)C(=O)N[C@@H](CC(C)C)C(=O)N[C@@H](CCCCN)C(=O)N[C@@H](Cc1ccc(O)cc1)C(=O)N[C@@H](CC(C)C)C(N)=O [BP489, Ac-KKLfKKK(COC11H23)LKYL-NH2] (Ac-KKL[dF]KKK(Lauroyl)LKYL-NH2)
unit text: mm
Size of the lesion (mm) 50 µM: 2
//
molecule: CCCC(=O)N[C@@H](CCCCN)C(=O)N[C@@H](CCCCN)C(=O)N[C@@H](CC(C)C)C(=O)N[C@H](Cc1ccccc1)C(=O)N[C@@H](CCCCN)C(=O)N[C@@H](CCCCN)C(=O)N[C@H](C(=O)N[C@@H](CC(C)C)C(=O)N[C@@H](CCCCN)C(=O)N[C@@H](Cc1ccc(O)cc1)C(=O)N[C@@H](CC(C)C)C(N)=O)[C@@H](C)CC [BP485, C3H7CO-KKLfKKILKYL-NH2]
unit text: mm
Size of the lesion (mm) 50 µM: 4

[ask] Lookup: Size of the lesion (mm) 50 µM / tobacco leaves / CCCCCC(=O)NCCCC[C@H](NC(=O)[C@H](Cc1ccc(O)cc1)NC(=O)[C@H](CCCCN)NC(=O)[C@H](CC(C)C)NC(=O)[C@@H](NC(=O)[C@H](CCCCN)NC(=O)[C@H](CCCCN)NC(=O)[C@@H](Cc1ccccc1)NC(=O)[C@H](CC(C)C)NC(=O)[C@H](CCCCN)NC(=O)[C@H](CCCCN)NC(C)=O)[C@@H](C)CC)C(N)=O [BP495, Ac-KKLfKKILKYK(COC5H11)-NH2] (Ac-KKL[dF]KKILKYK(Hexanoyl)-NH2)
[reply] 3

meta.source: paper PMC8233901
